Source of measurements: PubChem BioAssay AID1918935

system: 324938-238-R-J1-PDC complex spheroid viability; assay: Anticancer human tumor 324938-238-R-J1-PDC patient-derived bladder carcinoma cell line growth inhibition; conditions: second compound 0.1 µM; first compound 0.0316 µM; hits give low values
measurement-name: viability, T/C (%)
Return type: number; implicit unit %.

Form field - read-out: viability, T/C; system: 324938-238-R-J1-PDC complex spheroid viability; submitted item: CC1COCCN1c1cc(-c2ccnn2C)c2ccnc(-c3ccn[nH]3)c2n1 (centres undefined) + NC1CC1c1ccc(-c2cccc(O)c2)cc1
40.5

Form field - read-out: viability, T/C; system: 324938-238-R-J1-PDC complex spheroid viability; submitted item: Nc1ncn(C2CC(O)C(CO)O2)c(=O)n1 (centres undefined) + NC1CC1c1ccc(-c2cccc(O)c2)cc1
79.2

Form field - read-out: viability, T/C; system: 324938-238-R-J1-PDC complex spheroid viability; submitted item: CC1(C)CCC(CN2CCN(c3ccc(C(=O)NS(=O)(=O)c4ccc(NCC5CCOCC5)c([N+](=O)[O-])c4)c(Oc4cnc5[nH]ccc5c4)c3)CC2)=C(c2ccc(Cl)cc2)C1 + NC1CCC(NC2CC2c2ccccc2)CC1
75.7

Form field - read-out: viability, T/C; system: 324938-238-R-J1-PDC complex spheroid viability; submitted item: CC[C@@]1(O)C(=O)OCc2c1cc1n(c2=O)Cc2cc3c(CN(C)C)c(O)ccc3nc2-1 + NC1CCC(NC2CC2c2ccccc2)CC1
7.9

Form field - read-out: viability, T/C; system: 324938-238-R-J1-PDC complex spheroid viability; submitted item: COc1ccc([C@@H](O)c2cc(-c3ncnc4cc(N5CCOCC5)ccc34)c(F)cc2Cl)nn1 + NC1CC1c1ccc(-c2cccc(O)c2)cc1
82.3

Form field - read-out: viability, T/C; system: 324938-238-R-J1-PDC complex spheroid viability; submitted item: CC1COCCN1c1cc(C2(S(C)(=N)=O)CC2)nc(-c2ccnc3[nH]ccc23)n1 (centres undefined) + NC1CC1c1ccc(-c2cccc(O)c2)cc1
86.1

Form field - read-out: viability, T/C; system: 324938-238-R-J1-PDC complex spheroid viability; submitted item: CC(C)CC(NC(=O)CNC(=O)c1cc(Cl)ccc1Cl)B1OC(=O)CC(CC(=O)O)(C(=O)O)O1 (centres undefined) + NC1CC1c1ccc(-c2cccc(O)c2)cc1
3.13

Form field - read-out: viability, T/C; system: 324938-238-R-J1-PDC complex spheroid viability; submitted item: CC(C)c1c(-c2ccccc2)nc2c(C#N)c[nH]n2c1=O + NC1CCC(NC2CC2c2ccccc2)CC1
69.7

Form field - read-out: viability, T/C; system: 324938-238-R-J1-PDC complex spheroid viability; submitted item: CC1COCCN1c1cc(-c2ccnn2C)c2ccnc(-c3ccn[nH]3)c2n1 (centres undefined) + NC1CCC(NC2CC2c2ccccc2)CC1
49

Form field - read-out: viability, T/C; system: 324938-238-R-J1-PDC complex spheroid viability; submitted item: CC(C)CC(NC(=O)C(Cc1ccccc1)NC(=O)c1cnccn1)B(O)O (centres undefined) + NC1CC1c1ccc(-c2cccc(O)c2)cc1
0.55

Form field - read-out: viability, T/C; system: 324938-238-R-J1-PDC complex spheroid viability; submitted item: Nc1ncn(C2CC(O)C(CO)O2)c(=O)n1 (centres undefined) + NC1CCC(NC2CC2c2ccccc2)CC1;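 note: spheroids also contain HUVEC and human MSCs and agents combined with iadademstat; spheroids exposed to agents for 7 days before readout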
59.3

Form field - read-out: viability, T/C; system: 324938-238-R-J1-PDC complex spheroid viability; submitted item: CC1(C)CCC(CN2CCN(c3ccc(C(=O)NS(=O)(=O)c4ccc(NCC5CCOCC5)c([N+](=O)[O-])c4)c(Oc4cnc5[nH]ccc5c4)c3)CC2)=C(c2ccc(Cl)cc2)C1 + NC1CC1c1ccc(-c2cccc(O)c2)cc1;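 note: spheroids also contain HUVEC and human MSCs and agents combined with iadademstat; spheroids exposed to agents for 7 days before readout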
94.5

Form field - read-out: viability, T/C; system: 324938-238-R-J1-PDC complex spheroid viability; submitted item: O=C(C=Cn1cnc(-c2cc(C(F)(F)F)cc(C(F)(F)F)c2)n1)NNc1cnccn1 + NC1CCC(NC2CC2c2ccccc2)CC1;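 note: spheroids also contain HUVEC and human MSCs and agents combined with iadademstat; spheroids exposed to agents for 7 days before readout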
19.9

Form field - read-out: viability, T/C; system: 324938-238-R-J1-PDC complex spheroid viability; submitted item: CC1COCCN1c1cc(C2(S(C)(=N)=O)CC2)nc(-c2ccnc3[nH]ccc23)n1 (centres undefined) + NC1CCC(NC2CC2c2ccccc2)CC1;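 note: spheroids also contain HUVEC and human MSCs and agents combined with iadademstat; spheroids exposed to agents for 7 days before readout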
91.8
